- runDescription: viability loss with induced miR-34 in A549 – imaging, A549 dox-inducible miR-34, nuclei and caspase counts, primary screen (AID 1347080); also: test concentration not given here
- reportedConditions: A549 miR-34 inducible, Hoechst nuclei count, 48 h; stronger effect = lower value; cell number ratio, induced over uninduced
Hi there, I'd appreciate the recorded fold change for every entry that follows.
Numbers only.

compound: CN1C(C)(C)CCCC1(C)C
fold change: 0.888
--
compound: NC(=O)NC(=O)Cc1ccccc1
fold change: 0.88
--
compound: CCN(CC)CCOC(=O)C(c1ccccc1)C1CCCCC1 (centres undefined)
fold change: 0.896

API: the following record is the query input.
Problem: Give its fold change value. Item: `C#C[C@]1(O)CC[C@H]2[C@@H]3CCc4cc(OC)ccc4[C@H]3CC[C@@]21C`
Solution: 0.882
